Biological target: Estrogen receptor beta (Homo sapiens) (UniProt Q92731)
Sequence (Q92731 whole entry, looked up): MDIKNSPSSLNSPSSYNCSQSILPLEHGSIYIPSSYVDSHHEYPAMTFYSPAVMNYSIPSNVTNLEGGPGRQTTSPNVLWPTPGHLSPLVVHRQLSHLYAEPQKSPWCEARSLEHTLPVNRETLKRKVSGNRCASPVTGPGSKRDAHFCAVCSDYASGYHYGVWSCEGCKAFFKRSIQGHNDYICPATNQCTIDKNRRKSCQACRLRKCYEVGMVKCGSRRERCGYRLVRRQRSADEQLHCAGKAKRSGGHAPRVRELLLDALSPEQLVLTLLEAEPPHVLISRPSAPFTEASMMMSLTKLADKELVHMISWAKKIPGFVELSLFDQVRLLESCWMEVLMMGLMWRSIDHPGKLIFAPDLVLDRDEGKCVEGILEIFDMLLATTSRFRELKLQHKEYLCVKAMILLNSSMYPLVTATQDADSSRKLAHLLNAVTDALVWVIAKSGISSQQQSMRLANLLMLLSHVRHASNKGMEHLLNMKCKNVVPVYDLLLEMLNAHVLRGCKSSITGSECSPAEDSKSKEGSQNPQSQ
Experiment: OT_ER_ERbERb_0480: Odyssey Thera (OT) 8-hour HEK293T Protein-Complementation Assay for Estrogen Receptor-beta/-beta Homodimer (AID 2283357);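 also: active means signal gain over DMSO baseline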
Results filed as inconclusive are left out. Activity calls are given as the source filed them. The calls were made as follows: active = hit-call score of the fitted dose curve at least 0.9, where 1 is the maximum; inconclusive = response in the unintended direction; inactive = score below 0.9.
Allowed answers: true (1) = active, false (0) = inactive

Consider the following illustrative entries.
CC(=O)OC1CCCCC1C(C)(C)C (stereo not given) = false (0)
CCCCCC(=O)OCC = false (0)
Cc1c(C(=O)c2c[nH]n(C)c2=O)ccc(S(C)(=O)=O)c1C1=NOCC1 = false (0)
CCOC(=O)c1ccccc1C = false (0)
CCCC(CC)c1ccccc1 (stereo not given) = false (0)

Dear all, I need the recorded test outcome for COc1ccc(C(=O)c2ccccc2)c(O)c1 , thank you. true (1)

Dear all, I need the recorded test outcome for CCCCNS(=O)(=O)c1ccccc1 , thank you. false (0)

Dear all, I need the recorded test outcome for CCCCCCCO , thank you. false (0)
